All figures here come from ChEMBL document CHEMBL1128189.

- targetEntity: Renin (Homo sapiens, UniProt P00797)
- Sequence (P00797 whole entry): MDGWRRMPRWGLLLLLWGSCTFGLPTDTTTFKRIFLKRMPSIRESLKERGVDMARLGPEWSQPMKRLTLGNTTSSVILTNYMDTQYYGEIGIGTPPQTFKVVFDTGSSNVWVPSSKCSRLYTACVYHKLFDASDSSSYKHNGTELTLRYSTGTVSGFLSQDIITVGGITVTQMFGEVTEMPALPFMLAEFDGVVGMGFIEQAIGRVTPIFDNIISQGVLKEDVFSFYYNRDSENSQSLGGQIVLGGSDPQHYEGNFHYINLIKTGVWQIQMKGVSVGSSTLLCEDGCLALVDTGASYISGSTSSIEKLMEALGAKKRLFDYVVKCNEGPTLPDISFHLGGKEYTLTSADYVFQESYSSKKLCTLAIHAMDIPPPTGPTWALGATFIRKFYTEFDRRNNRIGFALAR
- assayInfo: Evaluation of inhibitory activity against human renin
Recorded IC50 values for a group of compounds are listed next.
Number only, in nM; omit the unit.

>>> val("COP(=O)(OC)[C@H](O)[C@H](CC1CCCCC1)NC(=O)[C@H](CC(C)C)NC(=O)[C@H](Cc1ccccc1)NC(=O)CCCCCN")
31
>>> val("COP(=O)(OC)[C@H](O)[C@H](CC1CCCCC1)NC(=O)[C@H](CC(C)C)NC(=O)[C@H](Cc1ccccc1)NC(=O)C1CCCC1")
16
>>> val("COP(=O)(OC)[C@H](O)[C@H](CC1CCCCC1)NC(=O)[C@H](Cc1cnc[nH]1)NC(=O)[C@H](Cc1ccccc1)NC(=O)C1CCCC1")
220
>>> val("COP(=O)(OC)[C@H](O)[C@H](CC1CCCCC1)NC(=O)[C@H](CC(C)C)NC(=O)[C@H](Cc1ccccc1)NC(=O)N1CCOCC1")
8.5
>>> val("CCOC(=O)[C@H](O)[C@H](CC1CCCCC1)NC(=O)[C@H](CC(C)C)NC(=O)[C@H](Cc1ccccc1)NC(=O)OC(C)(C)C")
5
>>> val("COP(=O)(OC)[C@H](O)[C@H](CC1CCCCC1)NC(=O)[C@H](Cc1cnc[nH]1)NC(=O)[C@H](Cc1ccccc1)NC(=O)N1CCOCC1")
41

Then there is this compound:
Entry under review: COP(=O)(O)[C@H](O)[C@H](CC1CCCCC1)NC(=O)[C@H](CC(C)C)NC(=O)[C@H](Cc1ccccc1)NC(=O)C1CCCC1 . Reported IC50?
27000

* * *

- targetEntity: Renin (Homo sapiens, UniProt P00797)
- Sequence (P00797 whole entry): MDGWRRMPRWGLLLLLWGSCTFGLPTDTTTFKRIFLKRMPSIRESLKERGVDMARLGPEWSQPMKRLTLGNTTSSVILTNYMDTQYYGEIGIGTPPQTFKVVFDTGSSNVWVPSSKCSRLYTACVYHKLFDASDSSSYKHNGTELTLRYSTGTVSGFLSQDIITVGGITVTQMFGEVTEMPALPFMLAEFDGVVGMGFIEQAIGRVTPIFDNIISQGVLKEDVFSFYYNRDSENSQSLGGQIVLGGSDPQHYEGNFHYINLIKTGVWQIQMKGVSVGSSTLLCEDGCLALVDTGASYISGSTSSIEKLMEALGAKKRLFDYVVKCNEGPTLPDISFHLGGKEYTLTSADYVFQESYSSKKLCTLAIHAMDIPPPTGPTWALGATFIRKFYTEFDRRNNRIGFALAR
- assayInfo: Evaluation of inhibitory activity against human renin. value in parentheses indicate no. of determinations
Recorded pIC50 values for a group of molecules are listed next.
Give only the number. pIC50 is defined as minus log10 of concentration in molar units.

Illustrative cases are given below, each with its answer.
>>> val("CCP(=O)(OC)C(O)[C@H](CC1CCCCC1)NC(=O)[C@H](CC(C)C)NC(=O)[C@H](Cc1ccccc1)NC(=O)C1CCCC1 (stereo in doubt; 28)")
6.68
>>> val("CCP(=O)(CC)[C@@H](O)[C@H](CC1CCCCC1)NC(=O)[C@H](CC(C)C)NC(=O)[C@H](Cc1ccccc1)NC(=O)C1CCCC1")
5.28
>>> val("CCP(=O)(OC)C(O)[C@H](CC1CCCCC1)NC(=O)[C@H](CC(C)C)NC(=O)[C@H](Cc1ccccc1)NC(=O)C1CCCC1 (stereo in doubt; 29)")
7.36
>>> val("CCP(=O)(OC)C(O)[C@H](CC1CCCCC1)NC(=O)[C@H](CC(C)C)NC(=O)[C@H](Cc1ccccc1)NC(=O)C1CCCC1 (stereo in doubt; 30)")
5.62

Form entry - test system: Renin (Homo sapiens, UniProt P00797); read-out: pIC50; molecule: CCP(=O)(CC)[C@H](O)[C@H](CC1CCCCC1)NC(=O)[C@H](CC(C)C)NC(=O)[C@H](Cc1ccccc1)NC(=O)C1CCCC1
6.40
